Ref: ChEMBL document CHEMBL1157636

- procedure_summary: Oral bioavailability in Sprague-Dawley rat at 5 mg/kg
- Type: ADME, organism-based
- condition_parameters: in vivo
measure_name: bioavailability (%)
// note: answer is a bare numeric in %

(Q) Please list bioavailability recorded for the compound OC[C@H]1O[C@@H](c2ccc(Cl)c(Cc3nnc(-c4ccco4)s3)c2)[C@H](O)[C@@H](O)[C@@H]1O
(A) 7.7

----------
- measured_target: Sodium/glucose cotransporter 2 (Homo sapiens, UniProt P31639)
- Sequence (P31639 whole entry): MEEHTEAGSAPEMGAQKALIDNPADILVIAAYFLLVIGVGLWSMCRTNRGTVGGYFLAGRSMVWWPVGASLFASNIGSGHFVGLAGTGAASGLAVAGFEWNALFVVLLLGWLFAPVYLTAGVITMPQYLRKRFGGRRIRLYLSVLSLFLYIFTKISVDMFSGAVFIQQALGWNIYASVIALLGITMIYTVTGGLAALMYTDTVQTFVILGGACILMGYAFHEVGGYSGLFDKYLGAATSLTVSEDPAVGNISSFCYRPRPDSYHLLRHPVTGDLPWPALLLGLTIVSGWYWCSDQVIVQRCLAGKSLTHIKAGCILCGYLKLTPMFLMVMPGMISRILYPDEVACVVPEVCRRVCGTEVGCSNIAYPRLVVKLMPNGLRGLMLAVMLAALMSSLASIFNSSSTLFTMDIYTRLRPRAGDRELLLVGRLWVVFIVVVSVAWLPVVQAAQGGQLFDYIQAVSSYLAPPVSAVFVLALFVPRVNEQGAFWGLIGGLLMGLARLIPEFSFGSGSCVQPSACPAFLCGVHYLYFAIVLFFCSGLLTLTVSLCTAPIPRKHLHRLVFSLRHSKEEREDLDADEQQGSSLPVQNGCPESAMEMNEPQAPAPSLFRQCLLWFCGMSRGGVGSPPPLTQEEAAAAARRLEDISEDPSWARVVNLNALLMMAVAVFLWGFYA
- procedure_summary: Inhibition of human recombinant SGLT2 expressed in CHO cells by liquid scintillation counting
measure_name: IC50

{"columns": ["compound", "IC50"],
 "data": [
  ["CCc1noc(C)c1-c1nnc(Cc2cc([C@@H]3O[C@H](CO)[C@@H](O)[C@H](O)[C@H]3O)ccc2Cl)s1", "> 10 µM"]
]}

(Q) Please list IC50 recorded for the compound Cc1noc(C)c1-c1nnc(Cc2cc([C@@H]3O[C@H](CO)[C@@H](O)[C@H](O)[C@H]3O)ccc2Cl)s1
(A) > 10 µM

(Q) Please list IC50 recorded for the compound CC(C)(c1ccc(Cl)cc1)c1nnc(Cc2cc(C3O[C@H](CO)[C@@H](O)[C@H](O)[C@H]3O)ccc2Cl)s1 (some centres undefined)
(A) > 10 µM

(Q) Please list IC50 recorded for the compound COc1ccc(Cc2ccccc2O[C@@H]2O[C@H](CO)[C@@H](O)[C@H](O)[C@H]2O)cc1
(A) 0.00625 µM

----------
- procedure_summary: Cmax in Sprague-Dawley rat at 5 mg/kg, po
- Format: ADME, organism-based
- Design: dose 5 mg/kg, route oral
- condition_parameters: in vivo
measure_name: Cmax (ng/mL)
// note: answer is a bare numeric in ng/mL

(Q) Please list Cmax recorded for the compound OC[C@H]1O[C@@H](c2ccc(Cl)c(Cc3nnc(-c4ccco4)s3)c2)[C@H](O)[C@@H](O)[C@@H]1O
(A) 50

----------
- procedure_summary: Elimination half life in Sprague-Dawley rat at 5 mg/kg, po
- Format: ADME, organism-based
- Parameters: dose 5 mg/kg, route oral
- condition_parameters: in vivo, read-out: beta t1/2 (converted)
measure_name: half-life

(Q) Please list half-life recorded for the compound OC[C@H]1O[C@@H](c2ccc(Cl)c(Cc3nnc(-c4ccco4)s3)c2)[C@H](O)[C@@H](O)[C@@H]1O
(A) 51.6 min
